ASSAY_TARGET: T1, biotinylated mouse EpoR-Fc protein (muEpoR-Fc) (mouse, UniProt P14753 25-249, limits assumed, biotinylated)
T1 construct: also called mouse EpoR (muEpoR); not shown: Fc part
T1 sequence (looked up): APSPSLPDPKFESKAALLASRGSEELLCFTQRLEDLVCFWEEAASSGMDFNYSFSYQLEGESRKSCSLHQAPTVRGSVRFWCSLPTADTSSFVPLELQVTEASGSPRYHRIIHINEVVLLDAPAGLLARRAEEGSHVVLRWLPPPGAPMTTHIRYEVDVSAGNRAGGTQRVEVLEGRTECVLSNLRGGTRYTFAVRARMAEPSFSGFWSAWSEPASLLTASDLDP
EXPERIMENT_NOTES: ELISA, antibody coated at 1 µg/ml, biotinylated muEpoR-Fc at 5 µg/ml, streptavidin-HRP
REPORTED_METRIC: binding result

clone 2 IgG2 protein (antibody, V domains shown, Human IgG2 (VH in an IgG2 heavy chain expression vector; light chain constant type matches the variable light chain isotype); also called IgG2 2; IgG22) VH: EVQLVQSGGGLVQPGGSLRLSCAASGFTFSSYWMSWVRQAPGKGLEWVANIKPDGSEKYYVDSVKGRFTISRDNAKNSVYLQMNSLRAEDTAVYYCARVSRGGSYSDWGQGTLVTVSS VL: QSVLTQPPSASGSPGQSVTISCTGTSSDVGGYNYVSWYQQHPGKAPKLMIYEVSKRPSGVPDRFSGSKSGNTASLTVSGLQPEDEADYYCSSYAGRNWVFGGGTQLTVL | binds
clone 30 IgG2 protein (antibody, V domains shown, Human IgG2 (VH in an IgG2 heavy chain expression vector; light chain constant type matches the variable light chain isotype)) VH: QVQLQESGPGLVKPSQTLSLTCAISGDSVSSNSAAWNWIRQSPSRGLEWLGRTYYRSKWYNDYAVSVKSRMTIKADTSKNQFSLQLNSVTPEDTAVYYCARDEGPLDYWGQGTLVTVSA VL: QAVLTQPSSVSGAPGQRVTISCTGSSSNLGTGYDVHWYQQLPGTAPKLLIYGNSNRPSGVPDRFSGSKSDTSGLLAITGLQAEDEATYYCQSYDFSLSAMVFGGGTKVTVL | binds
clone 5 IgG2 protein (antibody, V domains shown, Human IgG2 (VH in an IgG2 heavy chain expression vector; light chain constant type matches the variable light chain isotype); also called IgG2 5; IgG25) VH: EVQLVESGGGLVQPGGSLRLSCAASGFTFSSYWMSWVRQAPGKGLEWVANIKPDGSEKYYVDSVKGRFTISRDNAKNSVYLQMNSLRAEDTAVYYCARVSRGGSYSDWGQGTLVTVSS VL: QSALTQPASVSGSPGQSITISCTGTSSDVGGYIYVSWYQQHPGKAPKLMIYDVSRRPSGISDRFSGSKSGNTASLTISGLQAEDEADYYCNSYTTLSTWLFGGGTKVTVL | binds
clone 7 IgG2 protein (antibody, V domains shown, Human IgG2 (VH in an IgG2 heavy chain expression vector; light chain constant type matches the variable light chain isotype)) VH: EVQLVQSGGGLVQPGGSLRLSCAASGFTFSSYWMSWVRQAPGKGLEWVANIKPDGSEKYYVDSVKGRFTISRDNAKNSVYLQMNSLRAEDTAVYYCARVSRGGSYSDWGKGTLVTVSS VL: QSALTQPASVSGSPGQSIIISCTGTRSDIGGYNYVSWYQHHPGRAPKLIIFDVNNRPSGVSHRFSGSKSGNTASLTISGLQAEDEADYYCNSFTDSRTWLFGGGTKLTVL | binds
